What GI50 was measured for each of the following?
Tested on: LOX IMVI
Assay: NCI tumour cell line growth inhibition, 48 h
Active and inactive are the calls of the source. Rule as the data show it: active = GI50 up to about 1.1 µM and inactive = higher.

GET /value?item= Cc1cc2c(cc1C)N1Cc3c(ccc(C)c3C)N(C2)C1.Cc1cc2c(cc1C)N1Cc3cc(C)c(C)cc3N(C2)C1 &field=GI50 returns 86.7 µM (inactive)

Just so you know, measured GI50 for O=c1c2cc(Br)cc(Br)c2[nH]c(=S)n1-c1ccc(/N=N/c2ccc(O)c3cccnc23)cc1 came out at 24.5 µM (inactive)

Sure, the documented GI50 for CC(C)N(CC(=O)O)CC(=O)O is > 100 µM (inactive)

The recorded GI50 for O=C(CSc1nnc(-c2ccc(/N=C\c3ccc(Cl)cc3)cc2)o1)Nc1ccccc1Cl is > 100 µM (inactive)

Lookup result for CN(C(=O)C12C3C4C1C1C4(C(=O)C45C6C7C4C4C5C6C74C)C3C12C)C(C)(C)C (stereo not drawn) ; measured GI50: 48.1 µM (inactive)

The molecule N=C(N)N/N=C/c1c(Cl)nc2sccn12 showed GI50 equal to 18.9 µM (inactive)

# GI50 (molecule: CCCCCCCCCCCCCP(=O)(OC)OC ) is 19.3 µM (inactive)

GI50 reported for this molecule CCC(=O)OCOc1ccc(/C=C2\CCC(CN(C)C)C2=O)cc1 (stereo not drawn) : 1.94 µM (inactive)

Given item c1c2c(cc(-n3nnc4c3CCCCCC4)c1-n1nnc3c1CCCCCC3)CCCCCC2 , the value recorded as its GI50 is 11.8 µM (inactive)

Entry O=C1Oc2ccccc2C(=O)/C1=C\Nc1nc(-c2ccccc2)cs1 , GI50 reported as 5.2 µM (inactive)

The molecule identified as COc1ccc(C(O)/C(=N/N)c2nc3ccc(Cl)cc3nc2O)cc1 (stereo not drawn) registered its GI50 at > 100 µM (inactive)

Sure, the documented GI50 for O=C(Cc1ccccc1)NN1C(=O)C(Cl)C1c1ccc([N+](=O)[O-])cc1 (stereo not drawn) is 87.5 µM (inactive)

Looking up Clc1ccc(C(c2ccc(Cl)cc2)c2ccccn2)cc1 , I found its GI50 recorded as 16.7 µM (inactive)

----------
Tested on: 786-0
Assay: NCI tumour cell line growth inhibition, 48 h
Calls of active or inactive are those of the source. Cut-off read from the data, not from the text of the source: active = GI50 up to about 1.1 µM and inactive = higher.
A correct response names exactly one class from label 1 = active, label 0 = inactive

State the result this test recorded for NC1(c2cc3ccccc3s2)CCCCCC1 .
label 0

Could you please tell me the result logged for O=C(c1ccccc1)c1ccc2nc3n(c2c1)C(c1c(Cl)cccc1Cl)SC3 (stereo not given) in this assay?
label 0

Please indicate how the test categorized N=C(N)N/N=C/c1c(Cl)nc2sccn12 .
label 0

What was the test verdict on O=[N+]([O-])c1cccc2nc3ccccc3c(NCCNCCO)c12 ?
label 1

Called result for COC(=O)C(=O)C1(CCC(C)=O)c2ccccc2-c2c(C)ccc(C)c21 (stereo not given)
label 0

Check the results log: what was the call for CN(C(=O)C12C3C4C1C1C4(C(=O)C45C6C7C4C4C5C6C74C)C3C12C)C(C)(C)C (stereo not given) ?
label 0

Can you look up the reported call for CCOC(=O)c1ccc(C(=O)/C(C(C)=O)=C2\CCCN2C)n1C for me?
label 0

Field: outcome | Entry: CC(=O)C(C)C(=O)N1C(=O)N(C)C2(C)N(C)C(=O)NC12C (stereo not given)
label 0

Lab log entry: CC(C)NCCNC(=O)c1ccccc1Nc1c(Cl)cccc1Cl — outcome as called in the assay?
label 0

Hello, I am checking results. What call was entered for O=S1(=O)OC(c2ccc(O)cc2)(c2ccc(O)cc2)c2ccccc21 ?
label 0

Test call for this compound, please: CSCCCNC(=O)c1csc([C@@H](CSC)NC(=O)CCNC(=O)[C@@H](NC(=O)OCC(Br)(Br)Br)C(C)O)n1 (stereo not given in full)
label 0

Assay result, entry CCOC(=O)c1nc2cc(C(F)(F)F)ccc2nc1Nc1ccc(Cl)c(Cl)c1 — outcome?
label 0

Each compound tested received a call. Report the one for COc1ccc(/N=N/c2c(C)c(C#N)c(=S)n(C3OC(CO)C(O)C(O)C3O)c2C)cc1 (stereo not given) .
label 0

Status in this test for O=C1OC(CC(=O)c2ccc(Cl)cc2)C(Cl)=C1Cl (stereo not given) ?
label 0

Status in this test for CCCC(=O)C1=C(O)C(Cc2c(O)c(C)c(O)c(C(=O)CCC)c2O)=C(O)C(C)(C)C1=O ?
label 0

Each compound tested received a call. Report the one for CSc1nc2c(nc(C)c(=O)n2C2OCC(OC(C)=O)C(OC(C)=O)C2OC(C)=O)c(=O)[nH]1 (stereo not given) .
label 0

Outcome logged for Nc1ncnc2c1ncn2C(=O)NC12CC3CC(CC(C3)C1)C2 in this assay:
label 0

What did this assay record as the result for C=C1C(=O)c2cc3c(cc2C(c2cc(OC)c(OC)c(OC)c2)[C@@H]1C(=O)O)OCO3 (stereo not given in full) ?
label 0

Query: recorded result category for CCCc1c(O)c(=O)c2c(OC)cc(OC)c3c4c(OC)cc(OC)c5c(=O)c(O)c(CCC)c(c1c23)c54 in this test
label 1

Dear colleague, could you share the recorded outcome for Cc1cc(NC(=S)SCc2ccc(F)cc2)c([N+](=O)[O-])cc1C when you have a moment?
label 0

----------
Test system: SK-MEL-5
Test: NCI tumour cell line growth inhibition, 48 h
Calls of active or inactive are those of the source. Rule as the data show it: active = GI50 up to about 1.1 µM and inactive = higher.
Give measured GI50 for each item. Keep answers brief.

# GI50 measured on SK-MEL-5 for item COC(=O)C(=O)C1(CCC(C)=O)c2ccccc2-c2c(C)ccc(C)c21 (centres undefined) = 25.5 µM (inactive)

Record O=C1C([N-]S(=O)(=O)c2ccccc2)=C([n+]2ccc(Cc3ccccc3)cc2)C(=O)c2ccccc21 ; system SK-MEL-5; GI50 = 0.145 µM (active)

Cc1cc(C)nc(NS(=O)(=O)c2ccc(Nc3c4ccccc4nc4c(C(=O)NCCO)cccc34)cc2)n1 on SK-MEL-5 gives GI50 = 17.1 µM (inactive)

Query O=C1Oc2ccccc2C(=O)/C1=C\Nc1nc(-c2ccccc2)cs1 on SK-MEL-5; GI50 returned: 2.75 µM (inactive)

Lab note: compound CC1C(C)(C)C23CC12C1(OCCO1)C3Br (centres undefined) tested on SK-MEL-5; recorded GI50 was > 100 µM (inactive)

Bench note, SK-MEL-5: entry Cc1cc2c(c(S(=O)(=O)c3ccc(Cl)cc3[N+](=O)[O-])c1)NCCC2 , its GI50 = 25.9 µM (inactive)

With SK-MEL-5 as the test system, C#C[C@]1(O)CC[C@H]2[C@@H]3CCC4=C/C(=N/NC(=O)c5cccc6c(=O)c7ccccc7[nH]c56)CCC4[C@H]3CC[C@@]21C (some centres undefined) showed GI50 of 24.4 µM (inactive)

Bench note, SK-MEL-5: entry CC(=O)C(C)C(=O)N1C(=O)N(C)C2(C)N(C)C(=O)NC12C (centres undefined) , its GI50 = > 100 µM (inactive)

Kindly note: SK-MEL-5, CCCn1c(=O)c(N2CCN(c3ccccc3)CC2)nc2sc3ccccc3c21 , GI50 value reported: > 100 µM (inactive)

----------
Test system: NCI-H23
Assay: NCI tumour cell line growth inhibition, 48 h
Active and inactive are the calls of the source. Rule as the data show it: active = GI50 up to about 1.1 µM and inactive = higher.
# valid calls are active, inactive; nothing else

# fetch the recorded call for CC(=O)Nc1ccc2cc(C#N)c(=O)[nH]c2n1 here
inactive

Kindly provide the recorded test outcome for the following compound: C=C1c2ccccc2Oc2nc3nc(N)c(C#N)c(N)c3c(N)c21
inactive

What did this assay record as the result for C[N+]1(C)C/C(=C\C=C\c2ccccc2)C(=O)/C(=C/C=C/c2ccccc2)C1 ?
inactive

What did this assay record as the result for COc1cc(C2C(C(=O)O)=C(COC(C)=O)Oc3cc4c(cc32)OCO4)cc(OC)c1OC (configuration not stated) ?
inactive

Query: recorded result category for O=C(/C=C\c1cccc2ccccc12)c1ccc(F)cc1 in this test
inactive

I'd appreciate the recorded outcome for C=C1C(=O)c2cc3c(cc2C(c2cc(OC)c(OC)c(OC)c2)[C@@H]1C(=O)O)OCO3 (some centres not stated) from this test.
inactive

Outcome? O=C(O)C1(C(O)c2ccccc2)SCCCS1 (configuration not stated)
inactive

Kindly provide the recorded test outcome for the following compound: C#C[C@]1(O)CC[C@H]2[C@@H]3CCC4=C/C(=N/NC(=O)c5cccc6c(=O)c7ccccc7[nH]c56)CCC4[C@H]3CC[C@@]21C (some centres not stated)
inactive

What is the recorded call for this compound in the test? C[Si](C)(C)CN1C(=O)c2ccccc2C1(O)c1ccccc1 (configuration not stated)
inactive

What outcome does the record of this test show for Cc1ccc(-c2c(N)[n+]([O-])c3ccccc3[n+]2[O-])cc1 ?
inactive

# lookup: test call for COc1cccc(C=O)c1C(=O)c1cc(O)ccc1O
inactive

Which outcome was entered for the compound N#CSc1[nH]cnc1C(N)=O in this test?
inactive

Identify the outcome logged in this assay for the compound shown: Cc1cccc(/C=N\NC(=S)N2CCCCC2)n1
active

Give the logged outcome of this assay for the following compound: CCCCCCCC(=O)N1C2CC3CCC2(CS1(=O)=O)C3(C)C (configuration not stated)
inactive

Test call for this compound, please: CC1(C)C2CCC(=O)C1CC2 (configuration not stated)
inactive

Tell me the assay call for Brc1ccc(C[N+]23CN4CN(CN(C4)C2)C3)cc1 please.
inactive

Could you check what this test reported for Clc1ccc(C(c2ccc(Cl)cc2)c2ccccn2)cc1 ?
inactive

Answer briefly: the call reported for Cn1cc[n+](-c2cc(=O)n(C)c(=O)[n-]2)c1 in this assay.
inactive

Recorded call for O=C1C[C@H](COCc2ccccc2)NC(=O)C[C@H](COCc2ccccc2)NC(=O)C[C@H](COCc2ccccc2)N1 ?
inactive

Test call for this compound, please: C=CCN(c1cc(OC)c2c(c1[N+](=O)[O-])C(C)(SC)C(=O)N2)S(C)(=O)=O (configuration not stated)
inactive

Could you kindly confirm the outcome this assay logged for O=C1CC(C(OCc2ccccc2)C(OCc2ccccc2)C(OCc2ccccc2)C(COCc2ccccc2)OCc2ccccc2)CC(=O)N1 (configuration not stated) ?
inactive

What did the test return for COc1ccccc1C1(c2c(OC)c(=O)c2=O)SCCCS1 ?
inactive
